# Assay protocol: in vitro
# Stated conditions: male, Sprague-Dawley, rat
Experimental readout: viability at 24 h, 3 mM

viability at 24 h, 3 mM reported for this compound Cc1ccc(C)c(OCCCC(C)(C)C(=O)O)c1 [Gemfibrozil, gemfibrozil] : ~50%

---

# Assay protocol: in vitro
# Stated conditions: male, Sprague-Dawley, rat
Experimental readout: viability at 24 h, 30 uM

viability at 24 h, 30 uM reported for this molecule O=C(O)c1cc(-c2ccc(F)cc2F)ccc1O : ~100%

---

# Assay protocol: in vitro
# Stated conditions: male, Sprague-Dawley, rat
Experimental readout: viability at 24 h, 5 uM

viability at 24 h, 5 uM reported for this compound O=C(CCN1CCN2CCCC2C1)N1c2ccccc2Sc2ccc(Cl)cc21 (stereo not shown) : ~100%

---

# Assay protocol: AlamarBlue cell viability assay
# Stated conditions: male, Sprague-Dawley, rat
Experimental readout: viability at 24 h, 8 mM

viability at 24 h, 8 mM reported for this molecule CCC1(c2ccccc2)C(=O)NC(=O)NC1=O : > 95%

---

# Assay protocol: AlamarBlue cell viability assay
# Stated conditions: male, Sprague-Dawley, rat
Experimental readout: viability at 24 h, 25 uM

viability at 24 h, 25 uM reported for this compound S=C=Nc1cccc2ccccc12 [ANIT, α-naphthylisothiocyanate] : ~100%

---

# Assay protocol: in vitro
# Stated conditions: male, Sprague-Dawley, rat
Experimental readout: viability at 24 h, 0.4 mg/ml

viability at 24 h, 0.4 mg/ml reported for this compound CCCC(CCC)C(=O)O [Valproate, n-dipropylacetic acid] : ~100%

---

# Assay protocol: in vitro
# Stated conditions: male, Sprague-Dawley, rat
Experimental readout: viability at 24 h, 0.3 mM

viability at 24 h, 0.3 mM reported for this compound Cc1ccc(C)c(OCCCC(C)(C)C(=O)O)c1 : ~100%

---

# Assay protocol: in vitro
# Stated conditions: male, Sprague-Dawley, rat
Experimental readout: viability at 24 h, 10 uM

viability at 24 h, 10 uM reported for this molecule Cc1cccc(Nc2cc(Cl)nc(SCC(=O)O)n2)c1C [Wy-14643] : ~100%

---

# Assay protocol: AlamarBlue cell viability assay
# Stated conditions: male, Sprague-Dawley, rat
Experimental readout: viability at 24 h, 0.8 mM

viability at 24 h, 0.8 mM reported for this compound CCC1(c2ccccc2)C(=O)NC(=O)NC1=O : ~100%

---

The reader will find reported viability at 24 h, 10 mM values listed item by item below.
# Assay protocol: AlamarBlue cell viability assay
# Stated conditions: male, Sprague-Dawley, rat
# Description: Identification of toxicity markers was performed by microarray analysis and by the AlamarBlue® assay, a classical measure of cytotoxicity. The AlamarBlue® assay was performed in triplicate. […] The AlamarBlue® assay was performed as follows, using only the 24-hour time point samples. • 1. […] Alternatively, two absorbance readings can be measured for the oxidized (600 nm) and the reduced (570 nm) form of AlamarBlueg. […] The data were evaluated to determine whether or not the toxin reduced cell viability. […]

Compound	viability at 24 h, 10 mM
ClC(Cl)(Cl)Cl [CCl4, carbon tetrachloride]	80 to 85%

viability at 24 h, 10 mM reported for this compound CN(Cc1cnc2nc(N)nc(N)c2n1)c1ccc(C(=O)N[C@@H](CCC(=O)O)C(=O)O)cc1 [Methotrexate] : ~90%

---

# Assay protocol: in vitro
# Stated conditions: male, Sprague-Dawley, rat
The reader will find reported viability at 24 h, 0.1 mM values listed item by item below.

Look over these answered cases.
Molecule	Experimental readout	Value measured
CN(C)[C@@H]1C(O)=C(C(N)=O)C(=O)[C@@]2(O)C(O)=C3C(=O)c4c(O)cccc4[C@@](C)(O)[C@H]3C[C@@H]12	viability at 24 h, 0.1 mM	~100%
ClC(Cl)(Cl)Cl [CCl4, carbon tetrachloride]	viability at 24 h, 0.1 mM	~100%

viability at 24 h, 0.1 mM reported for this molecule CC[C@H](C)C(=O)O[C@H]1C[C@@H](C)C=C2C=C[C@H](C)[C@H](CC[C@@H]3C[C@@H](O)CC(=O)O3)[C@H]21 : ~100%

viability at 24 h, 0.1 mM reported for this molecule NN [Hydrazine] : 90 to 95%

viability at 24 h, 0.1 mM reported for this molecule COc1ccc2c(c1)c(CC(=O)O)c(C)n2C(=O)c1ccc(Cl)cc1 : ~100%

Values from patent US7469185B2
